Test: Example 8: Day 5 pharmacokinetics of racemic ranolazine and enantiomers, SR 1500 and 2000 mg bid
Assay type: in vivo, human
Conditions: male, human, plasma, oral, 2000 mg, Day 5, 2000 mg SR bid (racemic, Example 2D); read-out: Median tmax
assay readout: Tmax (h)

• COc1ccccc1OCC(O)CN1CCN(CC(=O)Nc2c(C)cccc2C)CC1 (racemic) [ranolazine] = 4

* * *

Experiment: Example 8: Day 5 pharmacokinetics of racemic ranolazine and enantiomers, SR 1500 and 2000 mg bid
Type: in vivo, human
Settings: male, human, plasma, oral; Day 5, 2000 mg SR bid (racemic, Example 2D); read-out: AUC96-108h
assay readout: AUC

- COc1ccccc1OCC(O)CN1CCN(CC(=O)Nc2c(C)cccc2C)CC1 (racemic): 68500 ng·h/mL

* * *

Assay: Example 8: Day 5 pharmacokinetics of racemic ranolazine and enantiomers, SR 1500 and 2000 mg bid
Assay type: in vivo, human
Conditions: male, human, plasma, oral; Day 5, 1500 mg SR bid (racemic, Example 2D)
Procedure: This Example evaluated the safety and tolerability of administering racemic ranolazine free base formulations as in Example 2D. The individual and mean concentrations of racemic ranolazine and its enantiomers, (R)-(+)-N-(2,6-dimethylphenyl)-4-[2-hydroxy-3-(2-methoxyphenoxy)-propyl]-1-piperazineacetamide, (S)-(−)-N-(2,6-dimethylphenyl)-4-[2-hydroxy-3-(2-methoxyphenoxy)-propyl]-1-piperazineacetamide in human plasma were also determined. […]
# Cmax values compiled below
assay readout: Cmax (ng/mL)

• COc1ccccc1OC[C@H](O)CN1CCN(CC(=O)Nc2c(C)cccc2C)CC1 [(+)R ranolazine] = 2910
• COc1ccccc1OCC(O)CN1CCN(CC(=O)Nc2c(C)cccc2C)CC1 (racemic) = 5280
• COc1ccccc1OC[C@@H](O)CN1CCN(CC(=O)Nc2c(C)cccc2C)CC1 [(−)S ranolazine] = 2940

* * *

Test: Example 8: Day 5 pharmacokinetics of racemic ranolazine and enantiomers, SR 1500 and 2000 mg bid
Assay type: in vivo, human
Conditions: male, human, plasma, oral, 2000 mg, within the dose interval, SR 1500 and 2000 mg bid; read-out: tmax values post-dose
assay readout: Tmax

- COc1ccccc1OCC(O)CN1CCN(CC(=O)Nc2c(C)cccc2C)CC1 (racemic) [ranolazine]: 1 to 6 h

Sourced from patent US6525057B2
